B1: Zinc finger homeobox protein 4, residues 2086 to 2141; numbered along this chain, Q86UP3 (parent)
chain: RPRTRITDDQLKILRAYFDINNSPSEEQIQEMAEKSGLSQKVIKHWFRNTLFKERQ

Variants of: B1
TEST_SUMMARY: abundance fitness (aPCA) (normalised: wild type 0, dead -1); higher = more abundant; growth selection in yeast, the domain comes from the species named
TEST_CONTEXT: Homo sapiens
Given measured abundance fitness, output true if it is greater than or equal to -0.1 and false if not.

Request: abundance fitness >= -0.1 for RPRTRITDDQLKILRAYFDINRSPSEEQIQEMAEKSGLSQKVIKHWFRNTLFKERQ [N22R] ?
Response: true

Next up:
Request: abundance fitness >= -0.1 for RPRTRITDDQLKILRAYFDINNSPSEEQIQEMAEKSGLSQKVIKHWFRNTQFKERQ [L51Q] ?
Response: true

These measurements were taken from the Human Domainome abundance scans (Beltran et al. 2025).
